test system: U2OS; experiment: Multiplex assay against U2OS; format: toxicity, cell-based; settings: human, 12 h, 10 µM, compound concentration 10 uM, replicate 1
Provide the reported Population Hoechst High Intensity Objects (%) of each item.
Respond numerically; units are % and should not be typed.

Memo: COc1cccc2c1c(NS(=O)(=O)c1ccc(Cl)s1)nn2Cc1cccc(CNC(=O)C(C)(C)O)c1 , reported Population Hoechst High Intensity Objects (%): 1

// C[C@H](N)COC(=O)[C@@H](CCCCN)NC(=O)Cc1c(-c2ccc3ccccc3c2)[nH]c2c1ccc1ccccc12 : Population Hoechst High Intensity Objects (%) value = 2

Measured Population Hoechst High Intensity Objects (%) of N#Cc1cc(F)cc(-c2nc(-c3ccc(F)cn3)no2)c1 : 1

So for Cc1c(CC(=O)O)c2cccnc2n1Cc1ccc(S(C)(=O)=O)cc1C(F)(F)F , the logged Population Hoechst High Intensity Objects (%) turned out to be 2

Input CCCCC(=O)N(Cc1ccc(-c2ccccc2-c2nnn[nH]2)cc1)[C@H](C(=O)O)C(C)C . Output Population Hoechst High Intensity Objects (%): 1

The value of Population Hoechst High Intensity Objects (%) measured for the compound CC(/C=C1\SC(=S)N(CCCC(=O)Nc2ccc(C(=O)O)c(O)c2)C1=O)=C\c1ccccc1 turned out to be 3

Reported Population Hoechst High Intensity Objects (%) ( Cl.NCCc1ccc(O)c(O)c1 [DOPAMINE HYDROCHLORIDE] ) = 3
